system: Clone V cells; settings: human, 16 h, 30 µM
Structures can show the parent of a compound that is named as a salt.
As shown below, each of these compounds has a reported Toxicity Assay % Fluor value.
Please state the figure in %; there is no need to write the unit.

1. CN(C)Cc1c(C(=O)NCCOc2ccc(C(=O)NO)cc2)oc2ccccc12 :: 93.46
2. Nc1nc2nc[nH]c2c(=S)[nH]1 :: 96.19
3. CCNC(=O)c1noc(-c2cc(C(C)C)c(O)cc2O)c1-c1ccc(CN2CCOCC2)cc1 :: 88.69
4. O=c1cc(-c2cccc3c2Sc2ccccc2S3)oc(N2CCOCC2)c1 :: 89.20
5. Nc1nc(Cl)nc2c1ncn2[C@@H]1O[C@H](CO)[C@@H](O)[C@@H]1F :: 94.15
6. Cn1cc(C2=C(c3ccc(Cl)cc3Cl)C(=O)NC2=O)c2ccccc21 :: 101.41
7. Cn1cc(C2=C(c3cn(C4CCN(Cc5ccccn5)CC4)c4ccccc34)C(=O)NC2=O)c2ccccc21 :: 95.12
8. COc1cccc2c1C(=O)c1c(O)c3c(c(O)c1C2=O)C[C@@](O)(C(C)=O)C[C@@H]3O[C@H]1C[C@H](N)[C@H](O)[C@H](C)O1 [Daunorubicin hydrochloride] :: 81.24
9. NC(=O)c1ccc(-c2nc(-c3ccc4c(c3)OCO4)c(-c3ccccn3)[nH]2)cc1 :: 90.72
10. CNC(=O)c1ccc(N2C(=S)N(c3ccc(C#N)c(C(F)(F)F)c3)C(=O)C2(C)C)cc1F [Enzalutamide] :: 90.81

Toxicity Assay % Fluor reading for Cc1nc(Nc2ncc(C(=O)Nc3c(C)cccc3Cl)s2)cc(N2CCN(CCO)CC2)n1 : 83.83

Toxicity Assay % Fluor reading for COc1ccc(Cl)cc1[C@]1(F)C(=O)Nc2cc(C(F)(F)F)ccc21 : 103.30

Toxicity Assay % Fluor reading for C=CC(=O)Nc1cc2c(Nc3ccc(F)c(Cl)c3)ncnc2cc1OCCCN1CCOCC1 : 84.09

Toxicity Assay % Fluor reading for O=C(CCBr)N1CCN(C(=O)CCBr)CC1 : 98.07

Toxicity Assay % Fluor reading for COc1cc2c(Oc3ccc4[nH]c(C)cc4c3F)ncnc2cc1OCCCN1CCCC1 : 86.10

Toxicity Assay % Fluor reading for O=C(/C=C/c1ccc(CN(CCO)CCc2c[nH]c3ccccc23)cc1)NO : 98.78

Toxicity Assay % Fluor reading for CC(=O)Nc1cccc(-n2c(=O)n(C3CC3)c(=O)c3c(Nc4ccc(I)cc4F)n(C)c(=O)c(C)c32)c1 : 92.79

Data provenance is paper PMC6858373.
